experiment: NCI Yeast Anticancer Drug Screen. Data for the mlh1 strain (AID 171);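 further: 0% = growth of vehicle-treated control cultures of the same strain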; conditions: S. cerevisiae mlh1 strain growth inhibition; at 1.2 µM; active compounds read high
Compounds without any hit were thinned out: in the full panel of roughly 79,000, 15% have a hit.
growth inhibition values by entry

- compound.smiles: "CC1=C(C)C(=O)C2=C(OCCO2)C1=O"
  growth inhibition, %: -4
- compound.smiles: "CC1=CC(=C(c2ccc(N)c(C)c2)c2ccc(N)c(C)c2)C=CC1=N"
  growth inhibition, %: 7
- compound.smiles: "CCN(CC)CCC(=O)Nc1ccc2sc3ccccc3c(=O)c2n1"
  growth inhibition, %: -2
- compound.smiles: "CCCNCC(=O)O[C@]1(CC)C(=O)OCc2c1cc1n(c2=O)Cc2cc3ccccc3nc2-1"
  growth inhibition, %: 24
- compound.smiles: "c1ccc2nc3c(nc2c1)sc1ccccc13"
  growth inhibition, %: 4
- compound.smiles: "O=S(=O)(c1ccccc1)N1CN2CN(C1)CN(S(=O)(=O)c1ccccc1)C2"
  growth inhibition, %: -16
